Attribution: PubChem BioAssay (NCI)

Each record here notes measured growth inhibition.
- ASSAY_SUMMARY: NCI Yeast Anticancer Drug Screen. Data for the bub3 strain (AID 167)
- MEASUREMENT_CONTEXT: S. cerevisiae bub3 mutant strain, at 50.0 µM, active compounds read high
The panel holds about 79,000 compounds, 15% with a hit somewhere; the sample as a whole holds those more often.
Note: unit % is implicit; provide only the numeric part.

MOLECULE | REPORTED_PROPERTY | NUMERIC_RESULT
CN(C)CCCn1ncc(Sc2cc([N+](=O)[O-])ccc2N)c(Cl)c1=O | growth inhibition | -5.55

-- ask Record request: growth inhibition value, item Cc1ccc2nc3c(C)c(Cl)c(=O)cc-3sc2c1
-- reply -2.4

-- ask Record request: growth inhibition value, item Cc1cnc2nc(C)c(C)nc2n1
-- reply -0.85

-- ask Record request: growth inhibition value, item Cc1cc2cc3c(C)cc(=O)oc3c(C)c2o1
-- reply -10.5

-- ask Record request: growth inhibition value, item Cc1nc2nc[nH]n2c1N=Nc1ccccc1
-- reply 7.5

-- ask Record request: growth inhibition value, item O=C(O)C1C(Br)C(Br)C1C(=O)O (stereo not given) (tested in a mixture with another compound)
-- reply -15.3
